Form field: CC50 at 96 h (one value per entry).
assay: Cytotoxicity against human MT4 cells after 4 days by MTT assay; format: cell-based
ENDPOINT_LABEL: CC50 at 96 h

>  <MOLECULE>
N#Cc1ccc(Nc2nc(Oc3ccc(Cl)cc3Cl)c3ccccc3n2)cc1

>  <READOUT_VALUE>
32 µM

$$$$
>  <MOLECULE>
CCOc1cc(C#N)cc(OCC)c1Oc1nc(Nc2ccc(C#N)cc2)nc2ccccc12

>  <READOUT_VALUE>
108 µM

$$$$
>  <MOLECULE>
O=C1Nc2ccc(Cl)cc2[C@@](C#CC2CC2)(C(F)(F)F)O1 [EFAVIRENZ]

>  <READOUT_VALUE>
≥ 6.3 µM

$$$$
>  <MOLECULE>
Cc1cc(Br)c(Oc2nc(Nc3ccc(C#N)cc3)nc3ccccc23)c(Br)c1

>  <READOUT_VALUE>
25 µM

$$$$
>  <MOLECULE>
Cc1ccccc1Oc1nc(Nc2ccc(C#N)cc2)nc2ccccc12

>  <READOUT_VALUE>
355 µM

$$$$
